Data provenance is PubChem BioAssay (NCATS).

Potency: recorded values
# Test Description: qHTS for differential inhibitors of proliferation of Plasmodium falciparum line 3D7 (AID 1876); further: potency means the concentration at half of the fitted maximal effect
# Conditions Used: P. falciparum 3D7 proliferation inhibition; series mostly up to 28.7 µM
Inconclusive results are not listed. Activity calls are given as the source filed them. The call rests on the fitted dose curve; in most records, active means well fitted curve in the direction sought with a large enough effect; inconclusive means small, poorly fitted or top-dose-only effect, or another doubt; inactive means no such curve, though single readings can be large or run the other way.
Quantity: Potency

{"columns": ["Compound String", "Quantity", "Result"],
 "data": [
  ["NC(N)=NC(=O)c1nc(Cl)c(N)nc1N", "Potency", "11200 nM (active)"],
  ["C[N+](C)(C)CCCCCCCCCC[N+](C)(C)C", "Potency", "355 nM (active)"],
  ["CC[C@H]1CN2CCc3cc(OC)c(OC)cc3[C@@H]2C[C@@H]1C[C@H]1NCCc2cc(OC)c(OC)cc21", "Potency", "79.4 nM (active)"],
  ["CNC(=O)Oc1ccc2c(c1)[C@]1(C)CCN(C)[C@@H]1N2C", "Potency", "4470 nM (active)"]
]}

---

# Test Description: qHTS for Inhibitors of the Functional Ribonucleoprotein Complex (vRNP) of Lymphocytic Choriomeningitis Arenaviruses (LCMV): Viability assay - alamar blue signal for LCMV Primary Screen (AID 1347085); further: nearly all actives have a fitted effect of over 80% in size
# Conditions Used: alamar blue viability counter-screen, LCMV vRNP screen cells; series mostly up to 57.5 µM
Records with an inconclusive call do not appear. The source made the active and inactive calls. Calls follow the shape of the full dose curve; tested in HEK293 reporter line.
Classes used: 1.0 for active, 0.0 for inactive

{"columns": ["Compound String", "Assigned Class"],
 "data": [
  ["Cc1cc(C(C)(C)C)c(O)c(C)c1CC1=NCCN1", 0.0],
  ["CCOP(=S)(OCC)O/N=C(\\C#N)c1ccccc1", 0.0],
  ["Oc1cccc2[nH]ccc12", 0.0],
  ["CN1C(=O)[C@@H](NC(=O)c2cc3ccccc3[nH]2)N=C(c2ccccc2)c2ccccc21", 0.0],
  ["CCCCc1ccc2nc(NC(=O)OC)[nH]c2c1", 1.0],
  ["CCS(=O)(=O)C(C)(C)S(=O)(=O)CC", 0.0]
]}

---

# Tested on: CP256
# Test Description: qHTS profiling for inhibitors of Plasmodium falciparum proliferation (AID 504749); further: nearly all actives have a fitted effect of over 60% in size
# Conditions Used: P. falciparum in erythrocytes, SYBR Green DNA, 72 h; series mostly up to 28.7 µM
# Experimental: NIH National Institute of Allergy and Infectious Diseases [NIAID] NIH Chemical Genomics Center [NCGC] […] Because mature erythrocytes lack DNA, only Plasmodium-derived DNA is detected. NCGC Assay Protocol Summary: The SYBR Green viability assay was adapted from a method described previously (Plouffe et al., 2008). […] The following morning, fluorescence intensity at 485(14) nm excitation and 535(25) nm emission wavelengths was measured on an EnVision (Perkin Elmer) plate reader. […]
Records with an inconclusive call do not appear. Calls of active or inactive are those of the source. Calls follow the shape of the dose curve; as a rule, active = well fitted inhibition curve with a large enough effect; inconclusive = small, poorly fitted or top-dose-only effect; inactive = flat fitted curve, though single readings scatter.
Classes used: active, inactive

{"columns": ["Compound", "Assigned Class"],
 "data": [
  ["CCNc1nc(Cl)nc(NCC)n1", "inactive"],
  ["CCC1(c2ccccc2)CCC(=O)NC1=O (stereo not drawn)", "inactive"],
  ["CC(C)NCC(O)c1ccc(N)c(C#N)c1 (stereo not drawn)", "inactive"],
  ["COC(=O)C1=CCCN(C)C1", "inactive"],
  ["CN(C)C(=S)SSC(=S)N(C)C", "active"],
  ["CCCCCCCCCCCC[N+](C)(C)CCOc1ccccc1", "active"],
  ["CCN(Cc1ccc(Cl)nc1)/C(=C/[N+](=O)[O-])NC", "inactive"],
  ["CNC(=O)Oc1cccc2ccccc12", "inactive"],
  ["C[C@]12CC[C@H]3[C@@H](CC=C4C[C@@H](O)CC[C@@]43C)[C@@H]1CC[C@@H]2O", "inactive"],
  ["OC(O)C(Cl)(Cl)Cl", "inactive"],
  ["O=C(NC(=O)c1c(F)cccc1F)Nc1cc(Cl)c(OC(F)(F)C(F)C(F)(F)F)cc1Cl (stereo not drawn)", "active"],
  ["c1ccc2nc(N3CCNCC3)ccc2c1", "inactive"],
  ["c1cc2c(c(N3CCNCC3)c1)OCCO2", "inactive"]
]}
